- System: HCV replicon genotype 1b
- test_name: HCV replicon assay, genotype 1b (cell ELISA for NS3/4A)
- Type: cell-based, hepatitis C virus
- assay_setup: HCV genotype 1b replicon cells, 96 hours incubation, NS3/4A ELISA readout, % of DMSO control; read-out: 1b IC50
endpoint: IC50 (nM)
Respond numerically; units are nM and should not be typed.

Report IC50 for CNC(=O)c1c(-c2ccc(F)cc2)oc2cc(N(C)S(C)(=O)=O)c(C3CCCN(c4nc5cc(F)ccc5o4)C3)cc12 (stereo not shown) [Example 51]
7.12

====

- Test system: HCV replicon genotype 1b
- test_name: HCV replicon assay, genotype 1b (cell ELISA for NS3/4A)
- Assay type: cell-based, hepatitis C virus
- assay_setup: Hepatitis C virus, 96 h, read-out: 1b IC50 (nM), HCV genotype 1b replicon cells, 96 hours incubation, NS3/4A ELISA readout, % of DMSO control
Provide the recorded IC50 for the entries that follow.
Please respond with the number in nM and leave the unit unwritten.

State its IC50: CNC(=O)c1c(-c2ccc(F)cc2)oc2cc(N(C)S(C)(=O)=O)c([C@@H]3CCCN(C(=O)c4ccc(F)cc4)C3)cc12 (single isomer, unassigned)
50.8

Hello, please tell me recorded IC50 for this one: CNC(=O)c1c(-c2ccc(F)cc2)oc2cc(N(C)S(C)(=O)=O)c([C@@H]3CCCN(S(=O)(=O)c4ccc(F)cc4)C3)cc12
8

Please report IC50 for the following compound: CNC(=O)c1c(-c2ccc(F)cc2)oc2cc(N(C)S(C)(=O)=O)c([C@@H]3CCCN(S(=O)(=O)C4CCCCC4)C3)cc12
31.7

Input CNC(=O)c1c(-c2ccc(F)cc2)oc2cc(N(C)S(C)(=O)=O)c([C@@H]3CCCN(C(=O)C4C5COCC54)C3)cc12 (stereo in doubt) , output reported IC50.
120

====

- Tested on: HCV replicon genotype 1b
- test_name: HCV replicon assay, genotype 1b (cell ELISA for NS3/4A)
- Assay type: cell-based, hepatitis C virus
- assay_setup: Hepatitis C virus, 96 h, read-out: 1b IC50 (nM), HCV genotype 1b replicon cells, 96 hours incubation, NS3/4A ELISA readout, % of DMSO control
Task for the reader: assign each of the following compounds its reported IC50.
Note: unit nM is implicit; provide only the numeric part.

Specify measured IC50 for CNC(=O)c1c(-c2ccc(F)cc2)oc2cc(N(C)S(C)(=O)=O)c([C@@H]3CCCN(C(=O)c4cc5sccc5n4C)C3)cc12 .
43.4

Answer with the recorded IC50 for the compound listed here: CNC(=O)c1c(-c2ccc(F)cc2)oc2cc(N(C)S(C)(=O)=O)c(C3CCCN(C(=O)[C@H](NC(=O)OC(C)(C)C)c4ccccc4F)C3)cc12 (single isomer, unassigned)
35.2

Specify measured IC50 for CNC(=O)c1c(-c2ccc(F)cc2)oc2cc(N(C)S(C)(=O)=O)c([C@@H]3CCCN(S(=O)(=O)c4c(Cl)nc5sccn45)C3)cc12 .
8.36

Name the recorded IC50 of the item CNC(=O)c1c(-c2ccc(F)cc2)oc2cc(N(C)S(C)(=O)=O)c([C@@H]3CCCN(C(=O)Cc4ccc(F)cc4)C3)cc12 (single isomer, unassigned) in your answer.
58.2

Provide only the value of recorded IC50 for CNC(=O)c1c(-c2ccc(F)cc2)oc2cc(N(C)S(C)(=O)=O)c([C@@H]3CCCN(C(=O)c4nc5ccc(F)cc5s4)C3)cc12
12

Identify IC50 associated with the compound CNC(=O)c1c(-c2ccc(F)cc2)oc2cc(N(C)S(C)(=O)=O)c([C@H]3CN(C(=O)c4cc5c(F)cccc5n4C)CCO3)cc12 (single isomer, unassigned)
36.9

Annotate the compound CNC(=O)c1c(-c2ccc(F)cc2)oc2cc(N(C)S(C)(=O)=O)c([C@@H]3CCCN(S(=O)(=O)c4ccc5ncsc5c4)C3)cc12 with its measured IC50.
6.79
